B1: Tyrosine-protein kinase Lck, residues 63 to 120; numbered along this chain, P06239 (parent)
chain: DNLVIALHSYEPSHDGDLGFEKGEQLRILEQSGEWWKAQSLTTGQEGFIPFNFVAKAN

# Variants of: B1
# procedure.text: abundance fitness (aPCA) (normalised: wild type 0, dead -1); higher = more abundant; growth selection in yeast, the domain comes from the species named
# test.parameters: Homo sapiens
Each record gets a class by abundance fitness: group 1 (below -0.6), group 2 (-0.6 to below -0.2), group 3 (-0.2 or more)

# variant.key, group
data = [
    ("E46P", "group 1"),
    ("L26A", "group 1"),
    ("S9M", "group 2"),
    ("W36T", "group 3"),
]

Which band does A55K fall in?
group 3

Hello, the source for this data is the Human Domainome abundance scans (Beltran et al. 2025), in case you need it.
